Assign z-score to each entry below.
- Test Name: adipocyte viability effects, profiling panel, cell-based, 3T3-L1 adipocytes, calcein-AM fluorescence, 48 h, basal (AID 1163); note: test concentration not given here
- Experimental Parameters: 3T3-L1 adipocytes viability, higher = more signal
Write no unit; give the number alone.

Incoming: Recorded z-score for `COc1ccc(COC(=O)NN=C2C[C@@H](O)[C@@H](O)[C@@H]3[C@@H]4C(=O)N(Cc5ccccc5)C(=O)[C@@H]4CC[C@H]23)cc1` , please?
Outgoing: 0.649

Incoming: Now this one: `CC(CCN1CCCCc2nc(C)c(C)cc21)=NO[C@@H](C)c1cn([C@H](CO)Cc2ccccc2)nn1`
Outgoing: -0.374

Incoming: How about `CCN1C(=O)[C@H]2[C@H]3[C@H](O)[C@H](O)CC(=O)[C@H]3CC[C@H]2C1=O` ?
Outgoing: 0.015

Incoming: Cool, now `COC(=O)CC=C[C@@H](C)[C@@H](C=NOC[C@H]1O[C@H](c2ccccc2)C=C[C@@H]1Oc1ccc(OC)cc1)NS(=O)(=O)c1ccc(C)cc1`
Outgoing: -0.486

Incoming: Also check `CCOC(=O)NN=C1C[C@@H](O)[C@@H](O)[C@@H]2[C@@H]3C(=O)N([C@@H](C)c4ccccc4)C(=O)[C@@H]3CC[C@H]12`
Outgoing: -0.584

Incoming: Repeat with CCOC(=O)[C@H](CC(C)C)NC(=O)CCC1CC(OC(=O)NCCc2ccc(F)cc2)CC2(CCCC(COC(=O)NCC(c3ccccc3)c3ccccc3)O2)O1 (some centres not stated)
Outgoing: 0.0775

Incoming: Input CCOC(=O)[C@H](CC(C)C)NC(=O)CCC1CC(OC(=O)NCc2cccc3ccccc23)CC2(CCCC(COC(=O)NCCc3ccc(Cl)cc3)O2)O1 (some centres not stated)
Outgoing: -0.23

These entries and their values trace back to PubChem BioAssay.
